Reference source for all entries: ChEMBL document CHEMBL5291721

- measured-on: Prostaglandin G/H synthase 1 (Rattus norvegicus, UniProt Q63921)
- Sequence (Q63921 whole entry): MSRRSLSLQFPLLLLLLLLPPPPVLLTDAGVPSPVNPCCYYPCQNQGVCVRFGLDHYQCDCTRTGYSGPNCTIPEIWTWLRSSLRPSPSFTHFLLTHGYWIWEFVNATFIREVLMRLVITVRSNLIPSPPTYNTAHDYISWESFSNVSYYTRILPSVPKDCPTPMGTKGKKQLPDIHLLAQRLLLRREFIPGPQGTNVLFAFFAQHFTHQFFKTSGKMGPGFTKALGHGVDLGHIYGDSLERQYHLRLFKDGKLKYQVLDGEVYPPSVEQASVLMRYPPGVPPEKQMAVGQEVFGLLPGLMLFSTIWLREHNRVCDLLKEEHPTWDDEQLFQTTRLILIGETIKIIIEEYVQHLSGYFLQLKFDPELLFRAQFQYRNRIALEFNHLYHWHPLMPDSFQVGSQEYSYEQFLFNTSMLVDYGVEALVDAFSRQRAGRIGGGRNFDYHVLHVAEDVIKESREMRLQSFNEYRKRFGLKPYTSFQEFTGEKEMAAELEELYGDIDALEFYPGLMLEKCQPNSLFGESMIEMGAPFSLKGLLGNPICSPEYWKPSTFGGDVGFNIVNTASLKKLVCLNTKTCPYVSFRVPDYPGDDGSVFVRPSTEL
- Type: functional
measure: AC50

{"columns": ["compound", "AC50"],
 "data": [
  ["COC(=O)[C@H]1[C@H]2C[C@@H]3c4[nH]c5cc(OC)ccc5c4CCN3C[C@H]2C[C@@H](OC(=O)c2cc(OC)c(OC)c(OC)c2)[C@@H]1OC", "18.8 µM"],
  ["Cc1cc(C)nc(NS(=O)(=O)c2ccc(N)cc2)n1", "> 10 µM"],
  ["CCCCOc1ccc(C(=O)CCN2CCCCC2)cc1", "> 30 µM"]
]}

Now for the compound whose AC50 we want.
So what's the measured AC50 for this one? CC(CN1c2ccccc2Sc2ccccc21)N(C)C (centres undefined)
> 30 µM
